Test: Solubility of compound in phosphate buffer at pH 2 by HPLC analysis
Format: physicochemical
Some molecules, each annotated with its measured solubility.
Express your answer as a number followed by its unit.

In plain terms, `CCOC(=O)c1cnc(NC2CCN(Cc3ccc(C(=O)NC)cc3)CC2)nc1Nc1c(C)cc(-c2ccc(C#N)cc2)cc1C.O=S(=O)(O)O` has a documented solubility of 147 µg/mL

Just so you know, measured solubility for `CCOC(=O)c1cnc(NC2CCN(Cc3ccc(C(=O)NC)cc3)CC2)nc1Nc1c(C)cc(-c2ccc(C#N)cc2)cc1C.O=P(O)(O)O` came out at 136 µg/mL

In plain terms, `CCOC(=O)c1cnc(NC2CCN(Cc3ccc(C(=O)NC)cc3)CC2)nc1Oc1c(C)cc(-c2ccc(C#N)cc2)cc1C.Cl` has a documented solubility of 103 µg/mL

The molecule listed as `Br.CCOC(=O)c1cnc(NC2CCN(Cc3ccc(C(=O)NC)cc3)CC2)nc1Nc1c(C)cc(-c2ccc(C#N)cc2)cc1C` has a reported solubility of 141 µg/mL

Further cases:
molecule `CCOC(=O)c1cnc(NC2CCN(Cc3ccc(C(=O)NC)cc3)CC2)nc1Oc1c(C)cc(-c2ccc(C#N)cc2)cc1C` , solubility observed: 109 µg/mL

----------
# selectivity ratio annotations
Experiment: Selectivity index, ratio of CC50 for human MT4 cells to EC50 for wild-type HIV-1 IIIB infected in human MT4 cells
Assay type: toxicity, cell-based
Details: read-out: Ratio CC50/EC50

selectivity ratio measured on `CCOC(=O)c1cnc(NC2CCN(Cc3ccc(OC)cc3)CC2)nc1Oc1c(C)cc(-c2ccc(C#N)cc2)cc1C` = 3740

***
The molecule listed as `CCOC(=O)c1cnc(NC2CCN(Cc3cccc(C#N)c3)CC2)nc1Oc1c(C)cc(-c2ccc(C#N)cc2)cc1C` has a reported selectivity ratio of 4960

Quick note, selectivity ratio for `CCOC(=O)c1cnc(NC2CCN(Cc3ccc(/C=C/C(=O)OC)cc3)CC2)nc1Oc1c(C)cc(-c2ccc(C#N)cc2)cc1C` landed at > 2450

For reference, reported selectivity ratio for `CCOC(=O)c1cnc(NC2CCN(Cc3ccc(OC(F)(F)F)cc3)CC2)nc1Oc1c(C)cc(-c2ccc(C#N)cc2)cc1C` stands at 923

The measured selectivity ratio associated with `CCOC(=O)c1cnc(NC2CCN(Cc3ccc(S(C)(=O)=O)cc3)CC2)nc1Oc1c(C)cc(-c2ccc(C#N)cc2)cc1C` reads 2290

For reference, reported selectivity ratio for `CCOC(=O)c1cnc(NC2CCN(Cc3ccccn3)CC2)nc1Oc1c(C)cc(-c2ccc(C#N)cc2)cc1C` stands at > 12200

Lab note: `CCOC(=O)c1cnc(NC2CCN(Cc3cccc(C(=O)NC)c3)CC2)nc1Oc1c(C)cc(-c2ccc(C#N)cc2)cc1C` gave selectivity ratio of 556

Per the records, this molecule ( `Cc1cn([C@H]2C[C@H](N=[N+]=[N-])[C@@H](CO)O2)c(=O)[nH]c1=O` ) has selectivity ratio equal to > 223

----------
Test system: Human immunodeficiency virus 1
Test: Antiviral activity against HIV-1 harboring RT Y181C mutant infected in human MT4 cells assessed as protection against virus-induced cytopathic effect incubated for 5 days by MTT assay
Type: functional, organism-based
Settings: Human immunodeficiency virus 1, MT4, 120 h
observation type: EC50
Note to self: number, then unit, no commentary.

Would you please look over these solved cases?
# value of EC50, Human immunodeficiency virus 1, item `CCOC(=O)c1cnc(NC2CCN(Cc3cccc(C(=O)NC)c3)CC2)nc1Oc1c(C)cc(-c2ccc(C#N)cc2)cc1C` = 0.067 µM

Simply: `CCOC(=O)c1cnc(NC2CCN(Cc3cccc(C#N)c3)CC2)nc1Oc1c(C)cc(-c2ccc(C#N)cc2)cc1C` , Human immunodeficiency virus 1, EC50 = 0.134 µM

Tested system Human immunodeficiency virus 1; EC50 recorded for `CCOC(=O)c1cnc(NC2CCN(Cc3ccccn3)CC2)nc1Oc1c(C)cc(-c2ccc(C#N)cc2)cc1C` was 0.118 µM

EC50 value, target or system Human immunodeficiency virus 1, for `CCOC(=O)c1cnc(NC2CCN(Cc3ccc(F)cc3)CC2)nc1Oc1c(C)cc(-c2ccc(C#N)cc2)cc1C` : 0.158 µM

`CCOC(=O)c1cnc(NC2CCN(Cc3ccc(S(N)(=O)=O)cc3)CC2)nc1Oc1c(C)cc(-c2ccc(C#N)cc2)cc1C` on Human immunodeficiency virus 1 gives EC50 = 0.202 µM

I looked up `CCOC(=O)c1cnc(NC2CCN(Cc3cccc(C(N)=O)c3)CC2)nc1Oc1c(C)cc(-c2ccc(C#N)cc2)cc1C` and its EC50 for Human immunodeficiency virus 1 was 0.076 µM

The compound `CCOC(=O)c1cnc(NC2CCN(Cc3ccncc3)CC2)nc1Oc1c(C)cc(-c2ccc(C#N)cc2)cc1C` , when measured on Human immunodeficiency virus 1, yielded EC50 of 0.066 µM

---
Considering `CCOC(=O)c1cnc(NC2CCN(Cc3ccc(S(C)(=O)=O)cc3)CC2)nc1Oc1c(C)cc(-c2ccc(C#N)cc2)cc1C` , its EC50 with Human immunodeficiency virus 1 was recorded as 0.051 µM
